tested on: rats; assay: Protection against X-ray exposure in rats (survival after irradiation); format: in vivo, Albino Wister rats; conditions: 20-25 mg Kg^-1 1 hour before irradiation; 30 days from irradiation; control 10
Counter-ions that a name gives are not always drawn.
Parameter: Percentage of surviving animals, day 30 (Percentage)
# value in Percentage; strip the unit string

Worked set:
CC(=O)SC(CC(=O)O)C[N+](C)(C)C (stereo not shown) [S--acetyl thiocarnitine Cl, S-acetyl thiocarnitine hydrochloride] :: 60
CC(O)CC(=O)SC(CC(=O)O)C[N+](C)(C)C (stereo not drawn) [S--hydroxybutyryl thiocarnitine Cl, S-beta hydroxybutyryl thiocarnitine] :: 60
CCC(CC)C(=O)SC(CC(=O)O)C[N+](C)(C)C (stereo not shown) :: 30

Record summary for C[N+](C)(C)CC(S)CC(=O)O (stereo not shown) [Thiocarnitine, thiocarnitine hydrochloride] : reported Percentage of surviving animals, day 30 = 50

Record CCCC(=O)SC(CC(=O)O)C[N+](C)(C)C (stereo not shown) [S--butyryl thiocarnitine Cl, S-butyryl thiocarnitine halogenide] . Reported Percentage of surviving animals, day 30: 40

The reported Percentage of surviving animals, day 30 of the compound CCC(=O)SC(CC(=O)O)C[N+](C)(C)C (stereo not shown) [S--propionyl thiocarnitine Cl, S-propionyl thiocarnitine halogenide] was 50

Notebook: CCCC(CCC)C(=O)SC(CC(=O)O)C[N+](C)(C)C (stereo not shown) [S--dipropylacetyl thiocarnitine Cl, hydrochloride] , Percentage of surviving animals, day 30 read as 50
